Listing: viscosity of selected molecules
# Details: 338.15 K; 101.33 kPa; Liquid; Falling or rolling sphere viscometry
Numbers after ± are expanded uncertainties.

>  <Molecule>
CC(=O)OCCC(C)C [3-methylbutyl ethanoate]

>  <viscosity>
0.507 ± 0.009 mPa·s

$$$$
>  <Molecule>
CCCC(=O)OCC [ethyl butanoate]

>  <viscosity>
0.4 ± 0.009 mPa·s

$$$$
>  <Molecule>
CCCCOC(C)=O [butyl ethanoate]

>  <viscosity>
0.405 ± 0.009 mPa·s

$$$$

* * *

# Details: 343.15 K; 101.33 kPa; Liquid; Falling or rolling sphere viscometry
Think of 0.4 mPa·s as a floor: if viscosity stands on it or above, it is fulfilled; beneath it, not fulfilled.

>  <Molecule>
CCOC(=O)CC [ethyl propanoate]

>  <Class>
not fulfilled

$$$$
>  <Molecule>
CCCCOC(=O)CCC [butyl butanoate]

>  <Class>
fulfilled

$$$$
>  <Molecule>
CCCCCC(=O)OCC [ethyl hexanoate]

>  <Class>
fulfilled

$$$$
>  <Molecule>
CCCCCCOC(C)=O [hexyl ethanoate]

>  <Class>
fulfilled

$$$$
>  <Molecule>
CCCC(=O)OCC [ethyl butanoate]

>  <Class>
not fulfilled

$$$$
>  <Molecule>
CC/C=C\CCOC(=O)C(C)C [cis-3-hexenyl isobutyrate]

>  <Class>
fulfilled

$$$$
>  <Molecule>
CCCCOC(C)=O [butyl ethanoate]

>  <Class>
not fulfilled

$$$$

Where do these numbers come from? They come from the NIST ThermoML archive (doi:10.1021/je050001c).
